Tested on: HT-29
Assay Procedure: Growth inhibition of human HT-29 cell
Assay type: functional, cell-based
pIC50: −log10 of the molar value.
Reported Metric: pIC50

{"Item Smiles": "N#Cc1ccc(/C=C/C(=O)c2ccccc2)cc1", "Target Entity": "HT-29", "Reported": 5.43}
